The measured values listed here are drawn from paper PMC2362650.

test_description: Plasma and urine pharmacokinetics (HPLC-UV) in patients after 60-min IV infusion
Type: in vivo, human
measurement_conditions: human, plasma, intravenous, 10 mg, patient no. 13; 10 mg m-2; day 1 course 1; two-compartment model; read-out: t1/2 (initial) (converted)
readout_type: half-life (min)
One number for each entry, in min.

Challenge: Return half-life (reported value) for this compound: C[C@@](O)(/C=C/[C@H]1CC=CC(=O)O1)[C@@H](C[C@@H](O)\C=C/C=C\C=C\CO)OP(=O)(O)O
Response given: 100

###

test_description: Plasma and urine pharmacokinetics (HPLC-UV) in patients after 60-min IV infusion
Assay type: in vivo, human
measurement_conditions: human, plasma, intravenous, 10 mg, patient no. 15; 10 mg m-2; day 1 course 1; two-compartment model; read-out: MRT
readout_type: MRT (h)
Answers are plain numbers, in h.

Challenge: Return MRT (reported value) for this molecule: C[C@@](O)(/C=C/[C@H]1CC=CC(=O)O1)[C@@H](C[C@@H](O)\C=C/C=C\C=C\CO)OP(=O)(O)O
Response given: 1.01
